Examples of binders with documented SPOT intensity follow.
# system: T1, Fus1, P11710
# T1 sequence (P11710 432-512, looked up): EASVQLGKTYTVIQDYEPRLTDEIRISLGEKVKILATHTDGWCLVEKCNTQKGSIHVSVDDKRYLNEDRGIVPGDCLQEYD
# experimental_protocol: SPOT array
# condition: median of control spots 1200
value_type: SPOT intensity

1. NRPAIRIPSLKKPAL    1
2. MPAPPPPPPPPPGAF    0
3. LTRRFPFLFPFDTRM    100
4. VNIPSPSSSPPPIPK    0
5. PAPPPPPRASRPTPN    1
6. PELAPKREAPKPPAN    0
7. VPPVPLPFGIPPFPM    0
